Source: patent US20240368232A1

# Tested on: TK^− VZV strain 07-1
# ASSAY EXPLANATION: microbe, parasite or virus in culture
# CONDITION DESCRIPTION: Human alphaherpesvirus 3, HEL, read-out: Antiviral activity EC50 TK^− VZV strain 07-1., VZV in HEL cells; plaque formation reduced by 50%; 20 PFU
pEC50: −log10 of the molar value.

{"MOLECULE": "O=c1[nH]c(=O)n([C@H]2C[C@H](O)[C@@H](CO)O2)cc1/C=C/Br [Brivudine (BVDU), Brivudine, reference compound]", "pEC50": 5.23}

---

# ASSAY EXPLANATION: in vitro
# CONDITION DESCRIPTION: African green monkey, Cytotoxicity Cell growth (CC50)

{"COMPOUND": "CCC(CC)COC(=O)[C@H](C)N[P@](=O)(OC[C@H]1O[C@@](C#N)(c2ccc3c(N)ncnn23)[C@H](O)[C@@H]1O)Oc1ccccc1", "CC50": "> 80 µM"}
